From: patent US20040248914A1

studyTarget: human NK1 receptors (Homo sapiens)
Construct: expressed in transfected cells; host or cells: MEL cells (membranes)
Sequence (P25103 whole entry): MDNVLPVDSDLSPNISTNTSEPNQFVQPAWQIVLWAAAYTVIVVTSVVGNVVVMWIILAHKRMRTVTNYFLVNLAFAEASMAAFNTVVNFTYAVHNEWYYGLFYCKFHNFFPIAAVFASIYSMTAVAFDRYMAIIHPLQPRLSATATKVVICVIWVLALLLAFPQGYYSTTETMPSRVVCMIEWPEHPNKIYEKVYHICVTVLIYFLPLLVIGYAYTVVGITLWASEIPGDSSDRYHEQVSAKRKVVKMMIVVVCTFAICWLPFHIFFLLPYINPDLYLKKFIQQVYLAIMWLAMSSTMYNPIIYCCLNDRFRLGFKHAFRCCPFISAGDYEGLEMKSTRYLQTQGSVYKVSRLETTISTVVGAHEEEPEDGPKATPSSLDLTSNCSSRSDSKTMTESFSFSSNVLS
methodDescription: In vitro receptor binding assay, [3H]SP in MEL cell membranes expressing cloned human NK1 receptors
measurementSetup: inhibition of [3H]SP binding to cloned hNK1 receptors in MEL cell membranes; read-out: hNK1 (Ki expressed as -Log Molar) (converted)
measure: Ki (µM)
One number for each entry, in µM.

{"compound": "CN(C[C@@H](CCN1CCC(N2CCCNC2=O)CC1)c1ccc(Cl)c(Cl)c1)C(=O)c1ccc(F)cc1.O=C(O)CC(O)(CC(=O)O)C(=O)O [Example 4, citrate]", "displayUnit": "µM", "Ki": 0.0617}
{"compound": "CN(C[C@@H](CCN1CCC(N2CCCNC2=S)CC1)c1ccc(Cl)c(Cl)c1)C(=O)c1ccccc1.Cl.Cl [Example 5, dihydrochloride]", "displayUnit": "µM", "Ki": 0.251}
{"compound": "CCN1CCCN(C2CCN(CC[C@H](CN(C)C(=O)c3ccccc3)c3ccc(Cl)c(Cl)c3)CC2)C1=O.O=C(O)CC(O)(CC(=O)O)C(=O)O [Example 2, citrate]", "displayUnit": "µM", "Ki": 0.112}

With those in mind, consider the next compound.
I am curious: what Ki value has been reported for CCN(C[C@@H](CCN1CCC(N2CCCNC2=O)CC1)c1ccc(Cl)c(Cl)c1)C(=O)c1ccccc1 ?
0.0661
